read-out: Lipoprotein lipase (LPL), LPL (gene 4023); test: LTEA_HepaRG_LPL: Life Technologies and Expression Analysis (LTEA) Assay for Lipoprotein lipase (LPL) using HepaRG (AID 2283515); settings: mRNA level, 48 h; actives raise or lower the signal
Activity calls are given as the source filed them. How the source made its calls: active means hit-call score of the fitted dose curve at least 0.9, where 1 is the maximum; inactive means score below 0.9.
measured-metric: AC50

See these solved cases before continuing.
CON=C(C(=O)OC)c1ccccc1CON=C(C)c1cccc(C(F)(F)F)c1 = inactive
CC(C1CC1)C(O)(Cn1cncn1)c1ccc(Cl)cc1 (stereo not drawn) = inactive
CCCCSP(=O)(SCCCC)SCCCC = 68.5 µM (active)
FC(F)C(F)(F)OCC(Cn1cncn1)c1ccc(Cl)cc1Cl (stereo not drawn) = 31.3 µM (active)
CCNc1nc(Cl)nc(NC(C)(C)C#N)n1 = inactive
CNc1cnn(-c2cccc(C(F)(F)F)c2)c(=O)c1Cl = inactive
CCOP(=S)(OCC)OC(Cl)C(Cl)(Cl)Cl (stereo not drawn) = inactive
CCOP(=O)(NC(C)C)Oc1ccc(SC)c(C)c1 (stereo not drawn) = inactive

For the 5 molecules below, give their AC50 values.
1. CC(Oc1cccc(Cl)c1)C(=O)O (stereo not drawn)
2. CN(C)C(=O)Nc1cccc(C(F)(F)F)c1
3. CCOP(=S)(OCC)SCCSCC
4. COc1cc(OC)nc(Sc2cccc(Cl)c2C(=O)O)n1
5. CSC1=N[C@@](C)(c2ccccc2)C(=O)N1Nc1ccccc1

["inactive", "inactive", "inactive", "inactive", "26.9 µM (active)"]

---

biological target: X-box-binding protein 1 (Homo sapiens) (UniProt P17861); assay: ATG_Xbp1_CIS: Attagene CIS-FACTORIAL HepG2 Assay for human X-box Binding Protein 1 (XBP1) (AID 2282972); settings: HepG2 XBP1 cis-element reporter, Attagene multiplex; actives raise or lower the signal
Sequence (P17861 whole entry, looked up): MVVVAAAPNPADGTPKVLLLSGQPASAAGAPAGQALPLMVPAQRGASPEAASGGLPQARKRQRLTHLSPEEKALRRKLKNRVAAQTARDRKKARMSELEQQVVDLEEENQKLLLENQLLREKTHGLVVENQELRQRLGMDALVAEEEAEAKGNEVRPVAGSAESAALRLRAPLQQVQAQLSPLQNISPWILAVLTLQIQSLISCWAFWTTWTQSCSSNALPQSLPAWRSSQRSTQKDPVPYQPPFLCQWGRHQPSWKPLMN
Activity calls are given as the source filed them. The calls were made as follows: active = hit-call score of the fitted dose curve at least 0.9, where 1 is the maximum; inactive = score below 0.9.
Log the outcome using a class from active, inactive

Please review the following examples before continuing.
CON=C(C(=O)OC)c1ccccc1CON=C(C)c1cccc(C(F)(F)F)c1 = inactive
CCCSP(=O)(OCC)SCCC = inactive
CCc1cccc(CC)c1N(COC)C(=O)CCl = inactive
CNC(=O)ON=C(SC)C(=O)N(C)C = active
C=C(C)[C@H]1Cc2c(ccc3c2O[C@@H]2COc4cc(OC)c(OC)cc4[C@@H]2C3=O)O1 = active
CCc1cccc(C)c1N(C(=O)CCl)C(C)COC (stereo not given) = inactive
CC1(C(=O)Nc2ccc(O)c(Cl)c2Cl)CCCCC1 = inactive
C#CC(C)(C)NC(=O)c1cc(Cl)cc(Cl)c1 = inactive

Identify the outcome logged in this assay for the compound shown: `CCOC(=O)COc1cc(-c2nn(C)c(OC(F)F)c2Cl)c(F)cc1Cl`
inactive

Identify the outcome logged in this assay for the compound shown: `CCOP(=S)(OCC)Oc1cc(C)nc(C(C)C)n1`
inactive

Identify the outcome logged in this assay for the compound shown: `CCOP(=O)(OCC)Oc1cc(C)nc(C(C)C)n1`
inactive

Identify the outcome logged in this assay for the compound shown: `COP(=O)(OC)SCn1c(=O)oc2cc(Cl)cnc21`
inactive

Identify the outcome logged in this assay for the compound shown: CCOP(=S)(OCC)OC(Cl)C(Cl)(Cl)Cl (stereo not given)
inactive

Identify the outcome logged in this assay for the compound shown: `CSc1nnc(C(C)(C)C)c(=O)n1N`
inactive

Identify the outcome logged in this assay for the compound shown: `CC(=NC#N)N(C)Cc1ccc(Cl)nc1`
inactive

---

molecular target: rat Opioid Receptor, Non-selective Binding, Oprm1 (gene 25601) (UniProt P33535); assay: NVS_GPCR_rOpiate_NonSelective: NovaScreen (NVS) G Protein-Coupled Receptor Assay for rat Opioid Receptor, Non-selective Binding (AID 2283318)
Sequence (P33535 whole entry, looked up): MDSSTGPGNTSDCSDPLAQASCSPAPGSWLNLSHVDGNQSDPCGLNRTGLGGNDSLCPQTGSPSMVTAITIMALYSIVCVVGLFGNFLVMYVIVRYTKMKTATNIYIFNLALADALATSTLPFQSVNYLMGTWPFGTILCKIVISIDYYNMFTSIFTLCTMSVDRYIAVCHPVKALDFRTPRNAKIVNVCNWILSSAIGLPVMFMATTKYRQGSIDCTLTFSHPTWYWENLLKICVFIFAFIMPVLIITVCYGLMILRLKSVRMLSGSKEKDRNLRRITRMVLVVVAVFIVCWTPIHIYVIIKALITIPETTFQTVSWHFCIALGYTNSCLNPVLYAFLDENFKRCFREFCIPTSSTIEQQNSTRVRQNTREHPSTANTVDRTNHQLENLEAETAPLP
Inconclusive results are not listed. Activity calls are given as the source filed them. The calls were made as follows: active = hit-call score of the fitted dose curve at least 0.9, where 1 is the maximum; inconclusive = response in the unintended direction; inactive = score below 0.9.
Log the outcome using a class from active, inactive

CCc1cccc(CC)c1N(COC)C(=O)CCl = inactive

Identify the outcome logged in this assay for the molecule shown: `CC[C@H](C)[C@H]1O[C@]2(C=C[C@@H]1C)C[C@@H]1C[C@@H](C/C=C(\C)[C@@H](O[C@H]3C[C@H](OC)[C@@H](O[C@H]4C[C@H](OC)[C@@H](NC)[C@H](C)O4)[C@H](C)O3)[C@@H](C)/C=C/C=C3\CO[C@@H]4[C@H](O)C(C)=C[C@@H](C(=O)O1)[C@]34O)O2`
inactive

Identify the outcome logged in this assay for the molecule shown: CC(C)=CC1C(C(=O)OCN2C(=O)C3=C(CCCC3)C2=O)C1(C)C (stereo unspecified)
inactive

---

Experiment: BSK_3C_Vis: BioMAP Diversity Plus: 3C Assay for Morphology Visualization (AID 2283025);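 further: fitted both ways so gain or loss versus DMSO counts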;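 on AC50: light microscopy image of cell morphology used as background control; cells imaged 24 h after dosing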
Conditions: primary human endothelial cells (HUVEC)
Description: BSK_3C is a cell-based, multiplexed-readout assay that uses umbilical vein endothelium, a human vascular primary cell, with measurements taken at 24 hours after chemical dosing in a 96-well plate.BSK_3C_Vis is an assay component measured in the BSK_3C assay. It measures NA related to cell morphology using light microscopy technology.Data from the assay component BSK_3C_Vis was analyzed into 1 assay endpoint. […]
The source made the active and inactive calls. The calls were made as follows: active = hit-call score of the fitted dose curve at least 0.9, where 1 is the maximum; inactive = score below 0.9.
measured-metric: AC50

See these solved cases before continuing.
CSc1nnc(C(C)(C)C)c(=O)n1N = inactive
CCCCOC(=O)c1ccccc1C(=O)O = 0.28 µM (active)
S=C1NCCN1 = 39 µM (active)
CCC(=NOC/C=C/Cl)C1=C(O)CC(C2CCOCC2)CC1=O (stereo not drawn) = inactive
COc1ccc(C(=CC(=O)N2CCOCC2)c2ccc(Cl)cc2)cc1OC = inactive
CC(Oc1cccc(Cl)c1)C(=O)O (stereo not drawn) = inactive
CCCOCC(=Nc1ccc(Cl)cc1C(F)(F)F)n1ccnc1 = 20 µM (active)
CC(=NC#N)N(C)Cc1ccc(Cl)nc1 = inactive

For the 5 compounds below, give their AC50 values.
1. CCc1cccc(CC)c1N(COC)C(=O)CCl
2. CCCCOC(=O)[C@@H](C)Oc1ccc(Oc2ccc(C#N)cc2F)cc1
3. CC(C)=CC1C(C(=O)OCN2C(=O)C3=C(CCCC3)C2=O)C1(C)C (stereo not drawn)
4. CCc1cccc(C)c1N(C(=O)CCl)C(C)COC (stereo not drawn)
5. CCc1cnc(C2=NC(C)(C(C)C)C(=O)N2)c(C(=O)O)c1 (stereo not drawn)

39 µM (active)
inactive
inactive
39 µM (active)
inactive

---

assay: APR_HepG2_NuclearSize_24hr: Apredica 24-hour HepG2 Assay for Nuclear Size (AID 2282907); conditions: high-content imaging, actives raise or lower the signal
Active and inactive are the calls of the source. Rule for the calls: active = hit-call score of the fitted dose curve at least 0.9, where 1 is the maximum; inactive = score below 0.9.
measured-metric: outcome

C#CC(C)(C)NC(=O)c1cc(Cl)cc(Cl)c1 = inactive
O=C(O)c1cc(Oc2ccc(C(F)(F)F)cc2Cl)ccc1[N+](=O)[O-] = inactive
CCOP(=S)(OCC)Oc1ccc([N+](=O)[O-])cc1 = inactive
CCC(CC)Nc1c([N+](=O)[O-])cc(C)c(C)c1[N+](=O)[O-] = inactive

Let us examine a further case.
Given item `CC(=NC#N)N(C)Cc1ccc(Cl)nc1` , the value recorded as its outcome is inactive

---

molecular target: rat Neurokinin-1 Receptor (NK1), Tacr1 (gene 24807); assay: NVS_GPCR_rNK1: NovaScreen (NVS) G Protein-Coupled Receptor Assay for rat Neurokinin-1 Receptor (NK1) (AID 2283309)
Inconclusive results are not listed. Activity calls are given as the source filed them. The calls were made as follows: active = hit-call score of the fitted dose curve at least 0.9, where 1 is the maximum; inconclusive = response in the unintended direction; inactive = score below 0.9.
measured-metric: AC50

See these solved cases before continuing.
CC[C@H](C)[C@H]1O[C@]2(C=C[C@@H]1C)C[C@@H]1C[C@@H](C/C=C(\C)[C@@H](O[C@H]3C[C@H](OC)[C@@H](O[C@H]4C[C@H](OC)[C@@H](NC)[C@H](C)O4)[C@H](C)O3)[C@@H](C)/C=C/C=C3\CO[C@@H]4[C@H](O)C(C)=C[C@@H](C(=O)O1)[C@]34O)O2 = 30.6 µM (active)
COc1ccc(C(=CC(=O)N2CCOCC2)c2ccc(Cl)cc2)cc1OC = inactive
FC(F)C(F)(F)OCC(Cn1cncn1)c1ccc(Cl)cc1Cl (stereo unspecified) = inactive
CCCOCC(=Nc1ccc(Cl)cc1C(F)(F)F)n1ccnc1 = inactive

For the 2 compounds below, give their AC50 values.
1. CCOP(=O)(OCC)Oc1cc(C)nc(C(C)C)n1
2. C[Si](Cn1cncn1)(c1ccc(F)cc1)c1ccc(F)cc1

1. inactive
2. inactive

---

read-out: MicroRNA 122 (MIR122), gene 406906; test: LTEA_HepaRG_MIR122: Life Technologies and Expression Analysis (LTEA) Assay for MicroRNA 122 (MIR122) using HepaRG (AID 2283516); conditions: mRNA level, 48 h; actives raise or lower the signal; further: the transcript read is the microRNA miR-122
Activity calls are given as the source filed them. The calls were made as follows: active = hit-call score of the fitted dose curve at least 0.9, where 1 is the maximum; inactive = score below 0.9.
Log the outcome using a class from class 1 for active, class 0 for inactive

CC(Oc1cccc(Cl)c1)C(=O)O (stereo not drawn) = class 0
CCc1cccc(CC)c1N(COC)C(=O)CCl = class 0
CCCCSP(=O)(SCCCC)SCCCC = class 0

Identify the outcome logged in this assay for the molecule shown: `Nc1nc(N)nc(NC2CC2)n1`
class 0

Identify the outcome logged in this assay for the molecule shown: `Cc1cc(C2CC2)nc(Nc2ccccc2)n1`
class 0

Identify the outcome logged in this assay for the molecule shown: `CCCOCC(=Nc1ccc(Cl)cc1C(F)(F)F)n1ccnc1`
class 1

Identify the outcome logged in this assay for the molecule shown: `CC[C@H](C)[C@H]1O[C@]2(C=C[C@@H]1C)C[C@@H]1C[C@@H](C/C=C(\C)[C@@H](O[C@H]3C[C@H](OC)[C@@H](O[C@H]4C[C@H](OC)[C@@H](NC)[C@H](C)O4)[C@H](C)O3)[C@@H](C)/C=C/C=C3\CO[C@@H]4[C@H](O)C(C)=C[C@@H](C(=O)O1)[C@]34O)O2`
class 1

Identify the outcome logged in this assay for the molecule shown: `C[Si](Cn1cncn1)(c1ccc(F)cc1)c1ccc(F)cc1`
class 1

Identify the outcome logged in this assay for the molecule shown: `COc1cc(OC)nc(Sc2cccc(Cl)c2C(=O)O)n1`
class 0

Identify the outcome logged in this assay for the molecule shown: `CSc1nc(NC(C)C)nc(NC(C)C)n1`
class 1

Identify the outcome logged in this assay for the molecule shown: `O=[N+]([O-])c1cc(C(F)(F)F)c(Cl)c([N+](=O)[O-])c1Nc1ncc(C(F)(F)F)cc1Cl`
class 1

Identify the outcome logged in this assay for the molecule shown: `CSC1=N[C@@](C)(c2ccccc2)C(=O)N1Nc1ccccc1`
class 1
